The entries below are paired with their reported kinase still bound, per cent of control.
Biological target: PKN2 (human) (UniProt Q16513)
Sequence (Q16513 whole entry, looked up): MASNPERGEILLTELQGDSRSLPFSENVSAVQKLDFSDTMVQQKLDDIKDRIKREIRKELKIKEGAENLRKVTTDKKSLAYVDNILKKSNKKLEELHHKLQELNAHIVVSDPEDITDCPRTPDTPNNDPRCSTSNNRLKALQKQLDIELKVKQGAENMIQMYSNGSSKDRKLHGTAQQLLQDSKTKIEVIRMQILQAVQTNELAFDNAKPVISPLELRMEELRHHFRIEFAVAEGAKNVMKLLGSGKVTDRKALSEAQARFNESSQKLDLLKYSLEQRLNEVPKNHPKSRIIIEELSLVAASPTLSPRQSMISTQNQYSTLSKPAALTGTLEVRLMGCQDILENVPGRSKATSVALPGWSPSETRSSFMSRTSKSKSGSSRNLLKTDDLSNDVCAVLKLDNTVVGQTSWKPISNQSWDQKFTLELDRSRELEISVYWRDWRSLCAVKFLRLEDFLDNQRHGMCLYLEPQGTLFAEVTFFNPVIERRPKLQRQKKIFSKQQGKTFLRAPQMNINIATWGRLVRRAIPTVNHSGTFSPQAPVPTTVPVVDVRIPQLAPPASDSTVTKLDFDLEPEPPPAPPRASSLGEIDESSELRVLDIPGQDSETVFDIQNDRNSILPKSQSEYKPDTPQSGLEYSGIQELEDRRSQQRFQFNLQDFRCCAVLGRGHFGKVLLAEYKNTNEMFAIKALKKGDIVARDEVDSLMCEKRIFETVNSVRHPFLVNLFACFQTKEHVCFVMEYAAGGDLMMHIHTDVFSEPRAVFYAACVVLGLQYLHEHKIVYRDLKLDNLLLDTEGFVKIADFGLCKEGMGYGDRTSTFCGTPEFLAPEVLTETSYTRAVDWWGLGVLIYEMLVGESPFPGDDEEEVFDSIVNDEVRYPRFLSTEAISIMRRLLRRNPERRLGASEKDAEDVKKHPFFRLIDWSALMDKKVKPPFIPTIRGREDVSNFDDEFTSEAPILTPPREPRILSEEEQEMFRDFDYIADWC
Assay: KINOMEscan competition binding
Details: compound 10.0 µM
Value expressed in %; do not type the unit.

>  <Smiles record>
CCc1nc(-c2cccc(C)c2)c(-c2ccnc(NC(=O)c3ccccc3)c2)s1

>  <Test target>
PKN2 (human) (UniProt Q16513)

>  <kinase still bound, per cent of control (%)>
76

$$$$

q: Data request, read-out kinase still bound, per cent of control, for COc1cc(N2CCC(C(N)=O)CC2)ccc1Nc1nc(N)c(Cl)c(Nc2ccccc2S(=O)(=O)C(C)C)n1
a: 100

q: Likewise for N#Cc1cc(-c2ccnc(Nc3ccc(-n4cnc(-c5cccnc5)n4)cc3)n2)cc(N2CCOCC2)c1 ?
a: 44

q: # repeat for COc1ccc(N(C(=O)Oc2cc(C(=O)Nc3cccc(C(F)(F)F)c3)ccc2C)c2ccnc(Nc3ccc(N4CCN(C)CC4)cc3)n2)c(OC)c1
a: 100

Values compiled from the kinase profiling compilation of Christmann-Franck et al. (2016).
